- system.tested: Intestinal-type alkaline phosphatase (Homo sapiens) (UniProt P09923)
- Sequence (P09923 whole entry, looked up): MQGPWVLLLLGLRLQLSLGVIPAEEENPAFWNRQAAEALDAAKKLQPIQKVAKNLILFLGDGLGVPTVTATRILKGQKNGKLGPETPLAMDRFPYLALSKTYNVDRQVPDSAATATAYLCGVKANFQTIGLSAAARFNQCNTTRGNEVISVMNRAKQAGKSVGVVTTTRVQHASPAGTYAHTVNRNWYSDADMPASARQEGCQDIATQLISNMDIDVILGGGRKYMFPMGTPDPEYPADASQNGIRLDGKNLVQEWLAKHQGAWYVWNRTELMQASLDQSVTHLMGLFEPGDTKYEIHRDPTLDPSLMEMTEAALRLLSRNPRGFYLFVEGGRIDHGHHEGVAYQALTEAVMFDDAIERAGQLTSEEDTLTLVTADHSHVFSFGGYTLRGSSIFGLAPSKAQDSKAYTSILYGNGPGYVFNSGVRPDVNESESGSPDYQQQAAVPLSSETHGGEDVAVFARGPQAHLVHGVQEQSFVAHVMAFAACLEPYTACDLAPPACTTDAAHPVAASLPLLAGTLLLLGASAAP
- assay.name: human IAP activators, SAR follow-up, mouse IAP activator project, biochemical, human enzyme for mouse series (AID 493145)
- test.context: purified human intestinal alkaline phosphatase, enzymatic activity
Calls of active or inactive are those of the source. How the calls were made is not given here.
Field 'call' accepts active, inactive

Example entries begin here.
Cc1cc(=O)oc2cc(NC(=S)NCCC(c3ccccc3)c3ccccc3)ccc12 | inactive
COc1ccc(NC(=S)NCCC(c2ccccc2)c2ccccc2)cc1 | active
O=C(NNC(=O)c1cc(O)c(O)c(O)c1)NC1CCCCC1 | inactive
COc1ccccc1CNC(=O)CCNS(=O)(=O)c1ccc2[nH]c(=O)oc2c1 | inactive
CCOC(=O)N1CCC(NC(=O)CSc2sc3c(O)cc(=O)[nH]c3c2C#N)CC1 | inactive
CCOc1ccccc1CNC(=O)CCNS(=O)(=O)c1ccc2[nH]c(=O)oc2c1 | inactive
O=C1/C(=C/c2ccco2)SC(=S)N1C1CCS(=O)(=O)C1 (stereo not given) | active
O=C(CCCN1C(=O)/C(=C\c2ccco2)SC1=S)Nc1ccc(O)cc1C(=O)O | inactive
O=C(CN1C(=O)/C(=C/c2ccco2)SC1=S)NC1CCS(=O)(=O)C1 (stereo not given) | active

Consider the record given below.
(Q) Hey, what did the test say about CC(C(=O)NCCc1ccc(O)c(O)c1)N1C(=O)/C(=C\c2ccco2)SC1=S (stereo not given) ?
(A) inactive
